Hey, just so you know, these numbers are from patent US7709482B2.

For each record, write down the corresponding pIC50.
# target_system: Axl (Homo sapiens)
# Construct: endogenous in cells; host or cells: HeLa cells
# Sequence (P30530 26-894): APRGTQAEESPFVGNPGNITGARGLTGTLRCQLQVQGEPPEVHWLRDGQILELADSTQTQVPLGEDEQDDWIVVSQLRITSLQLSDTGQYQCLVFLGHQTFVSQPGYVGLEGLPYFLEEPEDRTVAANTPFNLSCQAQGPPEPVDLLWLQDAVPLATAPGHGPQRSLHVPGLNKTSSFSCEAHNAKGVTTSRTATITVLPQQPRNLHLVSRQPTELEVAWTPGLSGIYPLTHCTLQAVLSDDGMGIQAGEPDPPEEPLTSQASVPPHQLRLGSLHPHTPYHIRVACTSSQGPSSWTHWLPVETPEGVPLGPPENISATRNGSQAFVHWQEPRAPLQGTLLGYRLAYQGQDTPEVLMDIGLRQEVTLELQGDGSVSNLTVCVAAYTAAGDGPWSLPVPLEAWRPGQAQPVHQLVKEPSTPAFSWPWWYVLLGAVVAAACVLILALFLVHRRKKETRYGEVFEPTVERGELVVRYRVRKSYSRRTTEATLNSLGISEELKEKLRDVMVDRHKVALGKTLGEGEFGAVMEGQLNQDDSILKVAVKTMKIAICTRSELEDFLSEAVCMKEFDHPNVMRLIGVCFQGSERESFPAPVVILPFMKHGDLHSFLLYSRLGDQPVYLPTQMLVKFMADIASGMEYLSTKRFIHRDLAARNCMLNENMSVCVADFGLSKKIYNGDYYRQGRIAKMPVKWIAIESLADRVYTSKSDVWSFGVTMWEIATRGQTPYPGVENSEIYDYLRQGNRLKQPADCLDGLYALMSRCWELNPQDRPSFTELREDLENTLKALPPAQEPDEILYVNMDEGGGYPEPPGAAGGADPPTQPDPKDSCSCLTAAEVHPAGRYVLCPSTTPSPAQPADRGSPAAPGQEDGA
# experiment_notes: Phospho-Akt In-Cell Western Assay (inhibition of Axl activity after Axl-antibody cross-linking)
# Type: cell-based
# recorded_conditions: Hela cells, phospho-Akt chemiluminescence normalized to relative cell number; compounds of formula (Ia), Table 1; read-out: IC50
pIC50: −log10 of the molar value.

{"compound": "Nc1nc(Nc2ccc(N3CCN(C4CC5CCC4C5)CC3)cc2)nn1-c1cc2c(nn1)-c1ccccc1CCC2 (stereo not shown) [Compound 33]", "pIC50": "5.00 to 6.00"}
{"compound": "CC1CN(C2CCCC2)CCN1c1ccc(Nc2nc(N)n(-c3cc4c(nn3)-c3ccccc3CCC4)n2)cc1 (stereo not shown) [Compound 16]", "pIC50": "> 6.00"}
{"compound": "Nc1nc(Nc2ccc(N3CCC(N4CCCC4)CC3)c(Cl)c2)nn1-c1cc2c(nn1)-c1ccccc1CCC2 [Compound 62]", "pIC50": "> 6.00"}

Ask: Give pIC50 (Axl (Homo sapiens)) of the following compound: CCCN(CCC)C1CCN(c2ccc(Nc3nc(N)n(-c4cc5c(nn4)-c4ccccc4CCC5)n3)cc2F)CC1 [Compound 83]
Reply: 5.00 to 6.00
